Cited source for all entries: patent US20130210709A1

Reported AUC (% of), CHTX, CEM, 1.0 uM is given for each of the following binders.
molecular target: CXCR4 receptor (human, UniProt P61073 1-352); test: cell-based or functional assay
Sequence (P61073 whole entry): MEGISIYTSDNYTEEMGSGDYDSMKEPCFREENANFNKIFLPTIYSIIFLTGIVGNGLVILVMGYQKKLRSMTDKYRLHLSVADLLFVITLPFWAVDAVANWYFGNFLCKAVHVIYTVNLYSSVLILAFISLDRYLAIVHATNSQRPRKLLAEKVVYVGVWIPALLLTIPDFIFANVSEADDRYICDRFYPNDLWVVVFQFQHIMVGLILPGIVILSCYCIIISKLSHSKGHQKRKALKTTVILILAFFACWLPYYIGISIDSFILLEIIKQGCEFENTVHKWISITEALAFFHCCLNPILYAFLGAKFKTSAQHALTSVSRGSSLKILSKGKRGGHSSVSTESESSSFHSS
* marks the point of attachment. Palmitoyl = CCCCCCCCCCCCCCCC(=O)*; NHhexadecyl = CCCCCCCCCCCCCCCCN*

binder | AUC (% of), CHTX, CEM, 1.0 uM / %
Palmitoyl-MGYQKKLRSMTDK-NH2 (SMILES CCCCCCCCCCCCCCCC(=O)N[C@@H](CCSC)C(=O)NCC(=O)N[C@@H](Cc1ccc(O)cc1)C(=O)N[C@@H](CCC(N)=O)C(=O)N[C@@H](CCCCN)C(=O)N[C@@H](CCCCN)C(=O)N[C@@H](CC(C)C)C(=O)N[C@@H](CCCNC(=N)N)C(=O)N[C@@H](CO)C(=O)N[C@@H](CCSC)C(=O)N[C@H](C(=O)N[C@@H](CC(=O)O)C(=O)N[C@@H](CCCCN)C(N)=O)[C@@H](C)O) [CXCR4 i1 loop compound 36] | 102
Palmitoyl-SGYQKKLRSSTD-NH2 (SMILES CCCCCCCCCCCCCCCC(=O)N[C@@H](CO)C(=O)NCC(=O)N[C@@H](Cc1ccc(O)cc1)C(=O)N[C@@H](CCC(N)=O)C(=O)N[C@@H](CCCCN)C(=O)N[C@@H](CCCCN)C(=O)N[C@@H](CC(C)C)C(=O)N[C@@H](CCCNC(=N)N)C(=O)N[C@@H](CO)C(=O)N[C@@H](CO)C(=O)N[C@H](C(=O)N[C@@H](CC(=O)O)C(N)=O)[C@@H](C)O) [CXCR4 i1 loop compound 69] | 100
Ac-MGYQKKLRSMTDK-NHhexadecyl (SMILES CCCCCCCCCCCCCCCCNC(=O)[C@H](CCCCN)NC(=O)[C@H](CC(=O)O)NC(=O)[C@@H](NC(=O)[C@H](CCSC)NC(=O)[C@H](CO)NC(=O)[C@H](CCCNC(=N)N)NC(=O)[C@H](CC(C)C)NC(=O)[C@H](CCCCN)NC(=O)[C@H](CCCCN)NC(=O)[C@H](CCC(N)=O)NC(=O)[C@H](Cc1ccc(O)cc1)NC(=O)CNC(=O)[C@H](CCSC)NC(C)=O)[C@@H](C)O) [CXCR4 i1 loop compound 59] | 69
Palmitoyl-MGYQKKLRSMTDKY-NH2 (SMILES CCCCCCCCCCCCCCCC(=O)N[C@@H](CCSC)C(=O)NCC(=O)N[C@@H](Cc1ccc(O)cc1)C(=O)N[C@@H](CCC(N)=O)C(=O)N[C@@H](CCCCN)C(=O)N[C@@H](CCCCN)C(=O)N[C@@H](CC(C)C)C(=O)N[C@@H](CCCNC(=N)N)C(=O)N[C@@H](CO)C(=O)N[C@@H](CCSC)C(=O)N[C@H](C(=O)N[C@@H](CC(=O)O)C(=O)N[C@@H](CCCCN)C(=O)N[C@@H](Cc1ccc(O)cc1)C(N)=O)[C@@H](C)O) [CXCR4 i1 loop compound 37] | 92.3
Palmitoyl-MGYQKKLRSMTDKYRI-NH2 (SMILES CCCCCCCCCCCCCCCC(=O)N[C@@H](CCSC)C(=O)NCC(=O)N[C@@H](Cc1ccc(O)cc1)C(=O)N[C@@H](CCC(N)=O)C(=O)N[C@@H](CCCCN)C(=O)N[C@@H](CCCCN)C(=O)N[C@@H](CC(C)C)C(=O)N[C@@H](CCCNC(=N)N)C(=O)N[C@@H](CO)C(=O)N[C@@H](CCSC)C(=O)N[C@H](C(=O)N[C@@H](CC(=O)O)C(=O)N[C@@H](CCCCN)C(=O)N[C@@H](Cc1ccc(O)cc1)C(=O)N[C@@H](CCCNC(=N)N)C(=O)N[C@H](C(N)=O)[C@@H](C)CC)[C@@H](C)O) [CXCR4 i1 loop compound 49] | 50.9
